Known pIC50 of a selection of compounds
# Test system: HCCLM3
# Method Summary: Antiproliferative activity against human HCCLM3 cells assessed as reduction in cell viability after 48 hrs by CCK8 assay
# Assay type: functional, cell-based
# Condition Set: HCCLM3, 48 h
Reminder that pIC50 is minus the log10 of a molar concentration.

COc1cc(/C=C/C(=O)NCC(O)c2ccc(O)cc2)ccc1O (configuration not stated): 2.64

Next compound, pIC50 to be filled in.
Value wanted: pIC50 (HCCLM3) of entry O=c1[nH]cc(F)c(=O)[nH]1 [FLUOROURACIL]
2.74
